Assay: Selectivity index, HC50 for hemolytic activity in sheep RBC to MIC for antibacterial activity against Staphylococcus aureus ATCC29213
Assay type: toxicity
Conditions: sheep red blood cells (erythrocytes), read-out: Selectivity Index
measurement_label: selectivity ratio
A bare number is all that is needed in reply.

Some solved entries appear below for comparison.
record_smiles	selectivity ratio
C=CCc1ccc(OCC[N+](C)(C)CC(=O)NCC)c(-c2ccc(OCC[N+](C)(C)CC(=O)NCC)c(CC=C)c2)c1.[Br-].[Br-]	79.9
C=CCc1ccc(O)c(-c2cc(CC=C)ccc2OCCC[N+](C)(C)CC(=O)N(CCCC)CCCC)c1.[Br-]	382
C=CCc1ccc(O)c(-c2cc(CC=C)ccc2OCCC[N+](C)(C)CC(=O)NCCCC)c1.[Br-]	298
C=CCc1ccc(OCCC[N+](C)(C)CC(=O)NCCCCCC)c(-c2ccc(OCCC[N+](C)(C)CC(=O)NCCCCCC)c(CC=C)c2)c1.[Br-].[Br-]	269
C=CCc1ccc(O)c(-c2cc(CC=C)ccc2OCCCC[N+](C)(C)CC(=O)NCCCCCC)c1.[Br-]	349
C=CCc1ccc(OCCCC[N+](C)(C)CC(=O)NCC)c(-c2ccc(OCCCC[N+](C)(C)CC(=O)NCC)c(CC=C)c2)c1.[Br-].[Br-]	442
C=CCc1ccc(O)c(-c2cc(CC=C)ccc2OCCC[N+](C)(C)CC(=O)NCCCCCC)c1.[Br-]	372
C=CCc1ccc(OCC[N+](C)(C)CC(=O)NCCCC)c(-c2ccc(OCC[N+](C)(C)CC(=O)NCCCC)c(CC=C)c2)c1.[Br-].[Br-]	208
C=CCc1ccc(O)c(-c2cc(CC=C)ccc2OCC[N+](C)(C)CC(=O)NCCCCCC)c1.[Br-]	181
C=CCc1ccc(OCCCC[N+](C)(C)CC(=O)NCCCCC)c(-c2ccc(OCCCC[N+](C)(C)CC(=O)NCCCCC)c(CC=C)c2)c1.[Br-].[Br-]	112

In: # query: selectivity ratio of entry "C=CCc1ccc(OCCC[N+](C)(C)CC(=O)NCCCCC)c(-c2ccc(OCCC[N+](C)(C)CC(=O)NCCCCC)c(CC=C)c2)c1.[Br-].[Br-]"
Out: 546

In: Next record, please: "C=CCc1ccc(O)c(-c2cc(CC=C)ccc2OCC[N+](C)(C)CC(=O)N(CCCC)CCCC)c1.[Br-]"
Out: 393

In: Next record, please: "C=CCc1ccc(OCC[N+](C)(C)CC(=O)NCCC)c(-c2ccc(OCC[N+](C)(C)CC(=O)NCCC)c(CC=C)c2)c1.[Br-].[Br-]"
Out: 43.9

In: Next record, please: "C=CCc1ccc(O)c(-c2cc(CC=C)ccc2OCCC[N+](C)(C)CC(=O)NCCCCC)c1.[Br-]"
Out: 339

In: Next record, please: "C=CCc1ccc(OCCC[N+](C)(C)CC(=O)N(CCCC)CCCC)c(-c2ccc(OCCC[N+](C)(C)CC(=O)N(CCCC)CCCC)c(CC=C)c2)c1.[Br-].[Br-]"
Out: 270

In: Next record, please: "C=CCc1ccc(OCCC[N+](C)(C)CC(=O)NCC)c(-c2ccc(OCCC[N+](C)(C)CC(=O)NCC)c(CC=C)c2)c1.[Br-].[Br-]"
Out: 567

In: Next record, please: "C=CCc1ccc(O)c(-c2cc(CC=C)ccc2OCCCC[N+](C)(C)CC(=O)NCCCC)c1.[Br-]"
Out: 277

In: Next record, please: "C=CCc1ccc(O)c(-c2cc(CC=C)ccc2OCCCC[N+](C)(C)CC(=O)N(CCCC)CCCC)c1.[Br-]"
Out: 356

In: Next record, please: "C=CCc1ccc(OCCC[N+](C)(C)CC(=O)NCCCC)c(-c2ccc(OCCC[N+](C)(C)CC(=O)NCCCC)c(CC=C)c2)c1.[Br-].[Br-]"
Out: 789

In: Next record, please: "C=CCc1ccc(OCCC[N+](C)(C)CC(=O)NCCC)c(-c2ccc(OCCC[N+](C)(C)CC(=O)NCCC)c(CC=C)c2)c1.[Br-].[Br-]"
Out: 341

In: Next record, please: "C=CCc1ccc(OCCCC[N+](C)(C)CC(=O)NCCCCCC)c(-c2ccc(OCCCC[N+](C)(C)CC(=O)NCCCCCC)c(CC=C)c2)c1.[Br-].[Br-]"
Out: 143
